# procedureSummary: 28-day repeat-dose toxicity study, toxicokinetics of AMXT 1501 dicaprate
# Type: in vivo, beagle dogs
# conditionsUsed: both sexes, beagle, dog, plasma, po, 32 mg/kg/day, 32 mg/kg/day PO, DFMO 0, Day 28, M+F combined; read-out: Tmax Median
# Procedure: AMXT 1501 PK parameters were calculated for all AMXT 1501 dicaprate-dosed animals for the first dose (Day 1) and last dose (Day 28).
recordedEndpoint: Tmax (h)
Field: numeric (h). Do not append units.

Q: In one line, give reported Tmax of the entry CCCCCCCCCCCCCCCC(=O)NCCCC[C@@H](N)C(=O)NCCCNCCCCNCCCN [AMXT 1501 dicaprate] .
Result: 4

====

# procedureSummary: 28-day repeat-dose toxicity study, toxicokinetics of AMXT 1501 dicaprate
# Assay type: in vivo, beagle dogs
# conditionsUsed: beagle, dog, plasma, oral, Day 28, all dose groups; read-out: Day 28 individual animal AMXT 1501 t1/2 values
recordedEndpoint: half-life at 28 days

Q: In one line, give reported half-life at 28 days of the entry CCCCCCCCCCCCCCCC(=O)NCCCC[C@@H](N)C(=O)NCCCNCCCCNCCCN [AMXT 1501 dicaprate] .
Result: 8.85 to 69.4 h

====

# procedureSummary: 28-day repeat-dose toxicity study, toxicokinetics of AMXT 1501 dicaprate
# Format: in vivo, beagle dogs
# conditionsUsed: both sexes, beagle, dog, plasma, po, 16 mg/kg/day, 16 mg/kg/day PO, DFMO 200 mg/kg/day, Day 1, M+F combined; read-out: Cmax Mean
recordedEndpoint: Cmax

Q: In one line, give reported Cmax of the entry CCCCCCCCCCCCCCCC(=O)NCCCC[C@@H](N)C(=O)NCCCNCCCCNCCCN [AMXT 1501 dicaprate] .
Result: 152 ng/mL

====

# procedureSummary: 28-day repeat-dose toxicity study, toxicokinetics of AMXT 1501 dicaprate
# Format: in vivo, beagle dogs
# conditionsUsed: both sexes, beagle, dog, plasma, po, 8 mg/kg/day, 8 mg/kg/day PO, DFMO 50 mg/kg/day, Day 28, M+F combined; read-out: Tmax Median
recordedEndpoint: Tmax (h)
Field: numeric (h). Do not append units.

Q: In one line, give reported Tmax of the entry CCCCCCCCCCCCCCCC(=O)NCCCC[C@@H](N)C(=O)NCCCNCCCCNCCCN [AMXT 1501 dicaprate] .
Result: 6

====

# procedureSummary: 5 day repeat oral dosing PK of AMXT 1501 dicaprate
# Format: in vivo, beagle dogs
# conditionsUsed: both sexes, beagle, dog, plasma, po, 32 mg/kg, 32 mg/kg PO, Day 1, group mean; read-out: t1/2 Mean (converted)
recordedEndpoint: half-life (h)
Field: numeric (h). Do not append units.

Q: In one line, give reported half-life of the entry CCCCCCCCCCCCCCCC(=O)NCCCC[C@@H](N)C(=O)NCCCNCCCCNCCCN [AMXT 1501 dicaprate] .
Result: 18.6

====

# procedureSummary: 28-day repeat-dose toxicity study, toxicokinetics of AMXT 1501 dicaprate
# Assay type: in vivo, beagle dogs
# conditionsUsed: both sexes, beagle, dog, plasma, po, 16 mg/kg/day, 16 mg/kg/day PO, DFMO 50 mg/kg/day, Day 28, M+F combined; read-out: AUC0-∞ Mean
recordedEndpoint: AUC(0-inf) (ng·h/mL)
Field: numeric (ng·h/mL). Do not append units.

Q: In one line, give reported AUC(0-inf) of the entry CCCCCCCCCCCCCCCC(=O)NCCCC[C@@H](N)C(=O)NCCCNCCCCNCCCN [AMXT 1501 dicaprate] .
Result: 9590
